test-system: Albumin (Bos taurus)
assay-procedure: compounds binding labelled BSA control protein – biochemical, small-molecule microarray, Alexa647 label, 635/667 nm fluorescence, artefact control for SMM control protein annotation, profiling panel (AID 1118);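 further: score merges 667 nm emission intensity and signal-to-noise per printed compound spot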
condition-set: BSA-A647 binding, fluorescence 635 nm, higher = more signal
measured-endpoint: composite z-score

Hey, quick one: what's composite z-score for each of these?
1. CCCCC(CC)C(O)C1C=CC2C(=O)N(c3ccccc3)C(=O)C2N1Nc1ccc(C#N)cc1 (centres undefined)
2. COc1cc2c(cc1O)C(C1CC1)N(C)CC2 (centres undefined)
3. CC(C)N1C(=O)C[C@@](C(=O)O)(c2ccc([N+](=O)[O-])cc2)[C@H]1c1ccc(CO)cc1
4. COC(=O)[C@@]1(Cc2ccc(OC)cc2)[C@H]2c3cc(C(=O)N4CCCC4)n(CCc4c[nH]c5ccc(OC)cc45)c3C[C@H]2CN1C(=O)c1ccccc1

1: 1.02; 2: 0.789; 3: -0.795; 4: 0.93

====

assay-procedure: plasmodial surface anion channel blockers, osmotic lysis – cell-based, P. falciparum Indochina, OD700, 1 h, primary screen (AID 1154)
condition-set: P. falciparum Indochina infected RBC osmotic lysis, higher = more signal, called active from +8 up or from −8 down
measured-endpoint: z-score
One number for each entry.

Some solved cases for reference:
record-smiles: O=C(NCCN1CCOCC1)[C@@H]1c2ccccc2C(=O)N(C2Cc3ccccc3C2)[C@H]1c1ccc(CO)cc1
z-score: 3.11
//
record-smiles: CC1=C2[C@@H](CCc3ccccc3)OB(O)C[C@@H]2[C@@H]2C(=O)N(C)C(=O)[C@@H]2C1
z-score: 1.45
//
record-smiles: COC(=O)c1c(CC[C@@H](CO)NC(=O)N[C@@H](C)Cn2cc(-c3ccccn3)nn2)oc(C(C)=O)c1C(=O)OC
z-score: 1.71

Entry C#CCN([C@@H](Cc1ccccc1)C(=O)OC)[C@@H](/C=C/C1CC1)[C@H](O)Cc1ccccc1 , z-score reported as 1.09

====

assay-procedure: compound effects on lung adenocarcinoma cell viability – A549, calcein-AM fluorescence, 48 h, basal, profiling panel (AID 1162); further: test concentration not given here
condition-set: higher = more signal
measured-endpoint: z-score

Worked cases, answers included:
molecule: COc1ccc([Si](C)(C)[C@@H]2[C@@H](CC(=O)N3CCC[C@H]3CO)O[C@]3(C(=O)N(Cc4cccc(N5C(=O)COc6ccccc65)c4)c4ccccc43)[C@H]2C)cc1
z-score: -0.97
//
molecule: CCN(CC)c1ccc(N2CC=CC34O[C@@H]5/C=C\CCCOC(=O)C5[C@H]3C(=O)N(C(C)CO)[C@@H]4C2=O)cc1 (stereo not given in full)
z-score: 0.838
//
molecule: CC(C)c1ccc(NN2C(C(O)c3ccc(F)cc3)C=CC3C(=O)N(c4ccccc4)C(=O)C32)cc1 (stereo not given)
z-score: 0.394
//
molecule: CCC#CCN(Cc1ccccc1Br)[C@H](/C=C/C1CC1)[C@@H](O)Cc1ccccc1
z-score: -0.382
//
molecule: NCCCCCNC(=O)[C@H]1C[C@H]2C(=O)N3CCC[C@H]3C(=O)N2[C@H]1c1cccc(OCCO)c1
z-score: -0.173
//
molecule: C=C[C@H]1C(C(=O)OCC)=CC[C@@H](c2ccccc2)N1S(=O)(=O)c1ccc(C)cc1
z-score: -0.438
//
molecule: CCOC(=O)C[C@H]1[C@H](OC(=O)c2cc3ccccc3oc2=O)[C@@H](NC(=O)CC(C)C)c2cc(OCCCO)ccc2N1C(=O)c1ccc2ccccc2n1
z-score: -0.326
//
molecule: O=C1CS(=O)(=O)C(c2cccc([N+](=O)[O-])c2)N1c1ccccc1 (stereo not given)
z-score: 1.02
//
molecule: COc1ccc(C(=O)Nc2ccc(CN3C(=O)[C@]4(O[C@H](CC(=O)N5Cc6ccccc6C[C@H]5CO)[C@@H]([Si](C)(C)c5ccc(OC)cc5)[C@@H]4C)c4ccccc43)cc2)cc1
z-score: -0.513

Next item in the queue.
CCCC=C(CCC)[C@@H](NC(=O)C(C)(C)C)c1ccc(C(=O)OC)cc1 has a reported z-score of -1.01

====

System: Human papillomavirus type 1a E7 protein (residues 1-88)
assay-procedure: HPV1a E7 small-molecule binders, primary screen, biochemical, small-molecule microarray, residues 1-88, 635 nm (AID 1129)
condition-set: small-molecule microarray binding, fluorescence 635 nm; higher = more signal
measured-endpoint: composite z-score
Give bare numbers.

// solved cases for composite z-score follow
molecule: CCCC[C@@H](O)C1=C(COc2ccccc2)C[C@H]2C(=O)N(Cc3ccccc3)C(=O)[C@H]2[C@H]1CO
test-system: Human papillomavirus type 1a E7 protein (residues 1-88)
composite z-score: -0.0512
//
molecule: Cn1cccc1C(O)C1C=CC2C(=O)N(c3ccccc3)C(=O)C2N1Nc1ccccc1 (centres undefined)
test-system: Human papillomavirus type 1a E7 protein (residues 1-88)
composite z-score: 1.23
//
molecule: Cc1ccc(C(C)CC(O)C2C=CC3C(=O)N(c4ccccc4)C(=O)C3N2Nc2ccccc2)o1 (centres undefined)
test-system: Human papillomavirus type 1a E7 protein (residues 1-88)
composite z-score: 1.28

# input for lookup
Per the records, this molecule ( CC1CC/C=C\[C@H]2OC34C=CCN(C(C)C)C(=O)[C@H]3N(CCO)C(=O)[C@@H]4C2C(=O)O1 (some centres undefined) ) has composite z-score equal to -0.724

====

Give z-score for every item shown.
assay-procedure: optical density shifts of acrAB sulA E. coli – strain DRC41, OD650, 48 h, E. coli filamentation inducer project, primary screen (AID 1152);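 further: E. coli MC1000 strain DRC41 lacking acrAB efflux pump and sulA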
condition-set: higher = more signal, called active from +8 up or from −8 down
Active and inactive are the calls of the source.

Return reported z-score values for all items listed beneath this line.
1. C=C[C@@H](OC)[C@H](OC(=O)Nc1ccc(OC)cc1)c1ccc(O)c(F)c1
2. CS(=O)(=O)CCOC(=O)C1=CC(c2ccc(CO)cc2)=CC(C2CC2)N(Cc2sc3ccccc3c2Cl)C=C1C(=O)OCCS(C)(=O)=O (stereo not drawn)
3. CC(C)N1C(=O)C[C@@](C(=O)O)(c2ccc([N+](=O)[O-])cc2)[C@H]1c1ccc(CO)cc1

0.308 (inactive)
-3.12 (inactive)
1.47 (inactive)

Report z-score for each item below.
1. [N-]=[N+]=Nc1ccccc1[C@H]1OC(c2ccc(OCCCO)cc2)=N[C@@]1(Cc1ccccc1)C(=O)NCCN1CCOCC1
2. Cc1ccc(S[C@]2(C(=O)NCC(F)(F)F)CC(=O)N(Cc3cc(C(F)(F)F)cc(C(F)(F)F)c3)[C@@H]2c2ccc(CO)cc2)cc1
3. COc1ccc(CCNC(=O)[C@@H]2c3ccccc3C(=O)N(C3CCCCC3)[C@H]2c2ccc(CO)cc2)cc1
4. CC(C)N1CC=CC23O[C@@H]4C=CCCOC(=O)C4[C@H]2C(=O)N(CCCO)[C@@H]3C1=O (stereo partly drawn)
5. C=C(COC)/C(=C/C[C@H](OC(=O)c1ccncc1)c1ccc(CO)o1)c1cnc2ccccc2c1

0.378 (inactive)
-0.415 (inactive)
-0.71 (inactive)
2.91 (inactive)
-0.504 (inactive)

====

assay-procedure: probe aLefty1 binding on compound microarray – biochemical, small-molecule microarray, 635/667 nm fluorescence, primary screen (AID 1153);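 further: score merges spot fluorescence with signal-to-noise ratio from the scanned slide images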
condition-set: higher = more signal
Assign True to entries whose composite z-score meets or exceeds -0.1; assign False to the rest.

Check the entry CC1=C2[C@@H](CCc3ccccc3)OB(O)C[C@@H]2[C@@H]2C(=O)N(Cc3ccccc3)C(=O)[C@@H]2C1 : does composite z-score equal or exceed -0.1?
False

Is it the case that CN(C)c1ccc(C(O)C2C=CC3C(=O)NC(=O)C3N2Nc2ccccn2)cc1 (configuration not stated) has composite z-score reaching or exceeding -0.1?
True

Given the entry COC(=O)[C@@]1(Cc2ccccc2)[C@H]2c3cc(C(=O)N(C)C)n(Cc4ccc(C)o4)c3C[C@H]2CN1C(=O)c1ccccc1 , answer whether its composite z-score meets or surpasses -0.1.
True

In plain terms: is recorded composite z-score at least -0.1 for OCCCC1=CC(c2ccc(CN3CCCC3)cc2)N(Cc2cc3c(cc2Br)OCO3)CC1 (configuration not stated) ?
True

Record NC(=O)NCC#Cc1ccc2c(c1)[C@]1(C(=O)N2)[C@H](c2ccccc2OCCO)N2[C@H](c3ccccc3)[C@H](c3ccccc3)OC(=O)[C@H]2[C@@H]1C(=O)O ; criterion: composite z-score no lower than -0.1. Met?
False

====

assay-procedure: basal CRE-LacZ reporter activity in PC12 – cell-based, unstimulated, primary screen (AID 1145)
condition-set: no forskolin, luminescence, 4.5 h, higher = more signal, called active from +8 up or from −8 down
measured-endpoint: z-score
Answers are plain numbers.

Past entries and their recorded results:
compound: CC(C)[Si](C#C[Si](C(C)C)(C(C)C)C(C)C)(O[C@H](c1ccccc1)c1cn(Cc2ccccc2)nn1)C(C)C
z-score: -0.752
//
compound: CCCNC(=O)[C@@H]1c2ccccc2C(=O)N(Cc2ccc(OC(F)(F)F)cc2)[C@H]1c1ccc(CO)cc1
z-score: -0.322

Here are 6 compounds. What values of z-score were reported for them?
1. CC(C)C(CO)N1C(=O)[C@@H]2[C@H]3C(=O)OCC=C[C@H]3OC23C=CCN(c2ccc(Cl)cc2)C(=O)[C@@H]13 (stereo partly drawn)
2. COc1cc2c(cc1O)C(C1CC1)N(Cc1cccc(OC(F)(F)F)c1)CC2 (stereo not drawn)
3. COc1cc2c(cc1O)C(c1ccc(CN3CCCC3)cc1)N(Cc1cc3c(cc1Br)OCO3)CC2 (stereo not drawn)
4. O=C1N(CCS(=O)(=O)c2ccccc2)c2ccccc2[C@H]2OC(c3ccc(OCCCO)cc3)=N[C@@]12Cc1ccccc1
5. CCCC1(C(=O)OC)C=C2C(=C(C)C(=O)C2C)CN1 (stereo not drawn)
6. CCCCCN1CC=CC23O[C@@H]4/C=C\CCC(C)OC(=O)C4[C@H]2C(=O)N(C(CO)C(C)C)[C@@H]3C1=O (stereo partly drawn)

[0.203, -0.581, 0.389, 5.87, 2.3, -1.58]

Value source: PubChem BioAssay
